Biological target: nAChRs (L. migratoria manilensis α1 and R. norvegicus β2) (Locusta migratoria manilensis, UniProt P12390+W6ECM5)
Sequence (W6ECM5 21-570): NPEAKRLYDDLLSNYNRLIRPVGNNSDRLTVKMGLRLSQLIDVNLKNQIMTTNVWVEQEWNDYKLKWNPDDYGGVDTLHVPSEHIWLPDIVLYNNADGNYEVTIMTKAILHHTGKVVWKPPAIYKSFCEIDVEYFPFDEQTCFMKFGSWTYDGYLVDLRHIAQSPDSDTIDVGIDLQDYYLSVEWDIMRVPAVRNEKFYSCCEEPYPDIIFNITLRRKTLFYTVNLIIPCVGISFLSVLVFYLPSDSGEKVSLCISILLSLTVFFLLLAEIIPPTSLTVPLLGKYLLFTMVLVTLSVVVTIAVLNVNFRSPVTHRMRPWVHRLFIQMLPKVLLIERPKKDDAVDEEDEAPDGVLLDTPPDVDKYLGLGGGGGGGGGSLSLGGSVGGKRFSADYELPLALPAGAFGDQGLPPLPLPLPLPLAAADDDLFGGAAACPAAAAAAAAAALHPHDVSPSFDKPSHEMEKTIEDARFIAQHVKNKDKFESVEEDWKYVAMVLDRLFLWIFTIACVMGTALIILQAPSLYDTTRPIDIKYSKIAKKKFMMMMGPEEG
Sequence (P12390 25-500): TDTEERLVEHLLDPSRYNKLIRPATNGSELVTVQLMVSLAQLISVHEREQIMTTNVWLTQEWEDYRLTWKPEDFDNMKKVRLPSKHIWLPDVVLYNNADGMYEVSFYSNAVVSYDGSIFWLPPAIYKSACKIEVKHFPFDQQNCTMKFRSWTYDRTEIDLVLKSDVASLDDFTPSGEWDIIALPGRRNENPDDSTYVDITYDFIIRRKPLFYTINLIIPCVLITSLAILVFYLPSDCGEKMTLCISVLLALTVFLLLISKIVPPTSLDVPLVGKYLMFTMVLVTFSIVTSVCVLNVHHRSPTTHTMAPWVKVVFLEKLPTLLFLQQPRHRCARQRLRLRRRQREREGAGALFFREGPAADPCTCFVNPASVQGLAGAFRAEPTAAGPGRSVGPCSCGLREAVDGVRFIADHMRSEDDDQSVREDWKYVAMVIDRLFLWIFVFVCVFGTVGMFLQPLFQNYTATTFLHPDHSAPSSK
Test: Two-electrode voltage-clamp agonist dose-response on nAChRs expressed in Xenopus oocytes, with or without Na+/K+ ATPase
Details: oocytes only expressing nAChRs
Method: To characterize the influence of Na^+/K^+ ATPase on nAChR function, nAChRs were expressed with or without Na^+/K^+ ATPase in Xenopus oocytes. (B) Does-response curves for nicotine. (C) Does-response curves for imidacloprid. […] Differences in responses (currents), Imax and EC50 values were analyzed by one-way ANOVA with at least three repeats (different batches of oocytes from different frogs). […]

# smiles notation, EC50 (µM)
data = [
    ("CC(=O)OCC[N+](C)(C)C", 63.2),
]
